Sourced from paper PMC10757926

- assay-system: T1, hSIRPγ displayed on U2OS cells (Homo sapiens, UniProt Q9P1W8)
- T1 construct: signal-regulatory protein γ (SIRPγ), human; also called hSIRPy; source: U2OS, transiently expressing, on live cells
- T1 sequence (Q9P1W8 29-387): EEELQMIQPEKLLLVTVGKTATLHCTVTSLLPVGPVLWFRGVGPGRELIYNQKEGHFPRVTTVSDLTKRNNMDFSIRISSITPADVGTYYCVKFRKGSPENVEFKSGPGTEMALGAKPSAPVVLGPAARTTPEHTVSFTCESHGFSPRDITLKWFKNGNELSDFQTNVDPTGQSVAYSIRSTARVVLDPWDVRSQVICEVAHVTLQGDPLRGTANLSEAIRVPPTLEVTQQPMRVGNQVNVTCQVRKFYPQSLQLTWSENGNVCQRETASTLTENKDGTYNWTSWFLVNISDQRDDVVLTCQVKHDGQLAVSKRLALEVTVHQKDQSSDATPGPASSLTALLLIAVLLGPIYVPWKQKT
- method-notes: immunostaining of cells or tissue; live-cell immunofluorescence on U2OS cells expressing the target; unlabeled Nbs (1 nM to 100 nM) with Cy5-labeled anti-VHH, 1 h at 37°C
- applied-conditions: one partner purified

>  <binder>
hSIRPα Nb S12 (VHH, selected against the entire extracellular portion of hSIRPα; source: E. coli XL-1, purified (IMAC, SEC); not shown: His tag (from the IMAC purification)) VHH: QVQLVESGGGLVQPGGSLRLSCLVSGFSSSYYAIGWFRQAPGKEREGVSCITRSGDTTNYADSVKGRFTISRDDARNTVYLQMNSLKTEDTAVYSCALWAWAGSGRLRCTASEYGHWGQGTQVTVSS

>  <binding result>
binds

$$$$
>  <binder>
hSIRPα-S36 Nb (VHH, selected against the entire extracellular portion of hSIRPα; also called Nb S36; original S36 Nb; source: E. coli XL-1, purified (IMAC, SEC); not shown: His tag (from the IMAC purification)) VHH: EVQLVESGGGLVQPGGSLRLSCAASGFTLDYYAIGWFRQVPGKEREGVSCISSDGGGNTYYADSVKGRFTISRDNAKNTVYLQMNSLKPEDSAVYSCAAGPTYYSGSYCRDPHSDYDYWGQGTQVTVSS

>  <binding result>
binds

$$$$
